Study system: Metabotropic glutamate receptor 3 (Rattus norvegicus, UniProt P31422)
Sequence (P31422 whole entry): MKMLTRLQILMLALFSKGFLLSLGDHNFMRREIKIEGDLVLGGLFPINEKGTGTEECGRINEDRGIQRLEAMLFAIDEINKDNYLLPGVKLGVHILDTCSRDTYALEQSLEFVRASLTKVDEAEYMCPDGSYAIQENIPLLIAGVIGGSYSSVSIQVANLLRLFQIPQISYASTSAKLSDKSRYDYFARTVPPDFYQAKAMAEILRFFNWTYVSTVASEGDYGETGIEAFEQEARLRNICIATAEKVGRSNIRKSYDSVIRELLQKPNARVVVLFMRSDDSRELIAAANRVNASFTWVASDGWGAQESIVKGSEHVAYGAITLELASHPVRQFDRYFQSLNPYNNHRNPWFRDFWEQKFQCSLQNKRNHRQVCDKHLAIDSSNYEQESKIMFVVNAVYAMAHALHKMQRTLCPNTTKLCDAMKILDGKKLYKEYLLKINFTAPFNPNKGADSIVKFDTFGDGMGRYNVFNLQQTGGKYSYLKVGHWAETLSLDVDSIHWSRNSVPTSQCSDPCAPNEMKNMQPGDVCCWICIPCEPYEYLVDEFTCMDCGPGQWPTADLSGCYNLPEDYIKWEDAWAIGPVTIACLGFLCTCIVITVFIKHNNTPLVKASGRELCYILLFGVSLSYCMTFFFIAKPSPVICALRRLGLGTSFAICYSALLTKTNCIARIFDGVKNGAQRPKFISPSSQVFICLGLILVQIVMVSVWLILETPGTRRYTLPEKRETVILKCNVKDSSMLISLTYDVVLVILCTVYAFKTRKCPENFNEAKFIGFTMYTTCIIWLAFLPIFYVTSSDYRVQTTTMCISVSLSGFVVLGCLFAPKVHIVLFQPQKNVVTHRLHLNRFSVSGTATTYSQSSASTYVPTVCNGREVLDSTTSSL
Method description: Negative allosteric modulation of rat mGlu3R expressed in HEK cells harboring GIRK assessed as reduction in glutamate-induced thallium flux
Format: cell-based
pIC50: −log10 of the molar value.
A collection of compounds and their measured pIC50
Experimental endpoint: pIC50

> print(dat)
                                   compound  inequality.symbol  endpoint.value
1  Cc1cccc(-n2ccc(OCC(C)COc3ccccc3)cc2=O)c1 (single isomer, unassigned; form 2)                  =            5.89
2  C[C@H](COc1ccn(-c2ccc(F)cc2)c(=O)c1)Oc1ccccc1                  <            5.00
3  CC(COc1ccccc1)COc1ccn(-c2ccc(F)cc2)c(=O)c1 (racemic)                  =            5.49
4  Cc1cccc(-n2ccc(OCC(Oc3ccccc3)c3ccccc3)cc2=O)c1 (centres undefined)                  <            5.00
5  O=c1cc(OCC(Oc2ccccc2)c2ccccc2)ccn1-c1ccc(F)cc1 (centres undefined)                  <            5.00
6  CC(COc1ccccc1)COc1ccn(-c2ccc(Cl)cc2)c(=O)c1 (single isomer, unassigned)                  =            6.04
7  O=c1cc(OCC2CCc3ccccc3O2)ccn1-c1ccc(F)cc1 (racemic)                  =            5.11
8  Cc1cccc(-n2ccc(OC[C@H](C)Oc3ccccc3)cc2=O)c1                  =            5.89
9  C[C@H](COc1ccccc1)Oc1ccn(-c2ccc(Cl)cc2)c(=O)c1                  =            5.57

---

A collection of compounds and their measured pIC50
Study system: Metabotropic glutamate receptor 3 (Rattus norvegicus, UniProt P31422)
Method description: Negative allosteric modulation of rat mGlu3R expressed in HEK cells harboring GIRK assessed as reduction in glutamate-induced thallium flux
Format: cell-based
pIC50: −log10 of the molar value.
Experimental endpoint: pIC50

> print(dat)
                                    compound  inequality.symbol  endpoint.value
 1  Cc1cccc(-n2ccc(O[C@H](C)COc3ccccc3)cc2=O)c1                  =            5.82
 2  Cc1cccc(-n2ccc(OC[C@@H](C)Oc3ccccc3)cc2=O)c1                  <            5.00
 3  Cc1cccc(-n2ccc(OCC(C)COc3ccccc3)cc2=O)c1 (racemic)                  =            5.49
 4  Cc1cccc(-n2ccc(OCC3CCc4ccccc4O3)cc2=O)c1 (racemic)                  =            5.39
 5  C[C@H](COc1ccccc1)Oc1ccn(-c2cccc(Cl)c2)c(=O)c1                  =            6.28
 6  C[C@H](COc1ccccc1)Oc1ccn(-c2ccc(F)cc2)c(=O)c1                  =            5.52
 7  C[C@@H](COc1ccccc1)Oc1ccn(-c2ccc(F)cc2)c(=O)c1                  <            5.00
 8  CC(COc1ccccc1)COc1ccn(-c2cccc(Cl)c2)c(=O)c1 (single isomer, unassigned)                  =            5.85
 9  Cc1cccc(-n2ccc(OCC(C)COc3ccccc3)cc2=O)c1 (single isomer, unassigned; form 1)                  =            5.51
10  COc1ccc(-n2ccc(O[C@H](C)COc3ccccc3)cc2=O)cc1                  <            5.00
